Below is a list of entries, each paired with its recorded relative permittivity at zero frequency value.
assay: relative permittivity at zero frequency (dimensionless); details: 300.65 K; 101.33 kPa; Liquid; impedance/gain phase analyzer
Readout Kind: relative permittivity at zero frequency

N#CCCCC#N :: 34.33
N#CCCCCCCC#N :: 25.75
N#CCCCCCC#N :: 29.45
N#CCCCCC#N :: 31.83

* * *

Below is a list of entries, each paired with its recorded relative permittivity at zero frequency value.
experiment: relative permittivity at zero frequency (dimensionless); details: 323.15 K; 101.33 kPa; Liquid; impedance/gain phase analyzer
± gives the expanded uncertainty stated by the source.
Readout Kind: relative permittivity at zero frequency

N#CCCCC#N :: 32.21 ± 0.1
N#CCCCCCC#N :: 27.23 ± 0.1
N#CCCCCCCC#N :: 24 ± 0.1
N#CCCCCC#N :: 29.22 ± 0.1

* * *

assay: relative permittivity at zero frequency (dimensionless); conditions: 288.15 K; 101.33 kPa; Liquid; impedance/gain phase analyzer
Readout Kind: relative permittivity at zero frequency

N#CCCCCCCC#N :: 26.82
N#CCCCC#N :: 35.71
N#CCCCCCC#N :: 30.86
N#CCCCCC#N :: 33.36

* * *

experiment: relative permittivity at zero frequency (dimensionless); details: 283.15 K; 101.33 kPa; Liquid; impedance/gain phase analyzer
± gives the expanded uncertainty stated by the source.
Readout Kind: relative permittivity at zero frequency

N#CCCCCCCC#N [octanedinitrile] :: 27.29 ± 0.1
N#CCCCCC#N [hexanedinitrile] :: 34.01 ± 0.1
N#CCCCCCC#N [heptanedinitrile] :: 31.43 ± 0.1
N#CCCCC#N [pentanedinitrile] :: 36.27 ± 0.1

* * *

assay: relative permittivity at zero frequency (dimensionless); details: 305.65 K; 101.33 kPa; Liquid; impedance/gain phase analyzer
± gives the expanded uncertainty stated by the source.
Below is a list of entries, each paired with its recorded relative permittivity at zero frequency value.
Readout Kind: relative permittivity at zero frequency

N#CCCCC#N :: 33.83 ± 0.1
N#CCCCCC#N :: 31.26 ± 0.1
N#CCCCCCC#N :: 28.92 ± 0.1
N#CCCCCCCC#N :: 25.32 ± 0.1

* * *

Below is a list of entries, each paired with its recorded relative permittivity at zero frequency value.
test: relative permittivity at zero frequency (dimensionless); settings: 295.65 K; 101.33 kPa; Liquid; impedance/gain phase analyzer
Readout Kind: relative permittivity at zero frequency

N#CCCCCCCC#N [octanedinitrile] :: 26.16
N#CCCCCCC#N [heptanedinitrile] :: 30
N#CCCCC#N [pentanedinitrile] :: 34.87
N#CCCCCC#N [hexanedinitrile] :: 32.41

* * *

test: relative permittivity at zero frequency (dimensionless); details: 298.15 K; 101.33 kPa; Liquid; impedance/gain phase analyzer
Readout Kind: relative permittivity at zero frequency

N#CCCCCCC#N [heptanedinitrile] :: 29.71
N#CCCCCC#N [hexanedinitrile] :: 32.12
N#CCCCC#N [pentanedinitrile] :: 34.6
N#CCCCCCCC#N [octanedinitrile] :: 25.94

* * *

test: relative permittivity at zero frequency (dimensionless); settings: 320.65 K; 101.33 kPa; Liquid; impedance/gain phase analyzer
Below is a list of entries, each paired with its recorded relative permittivity at zero frequency value.
Readout Kind: relative permittivity at zero frequency

N#CCCCCC#N [hexanedinitrile] :: 29.5
N#CCCCCCC#N [heptanedinitrile] :: 27.46
N#CCCCC#N [pentanedinitrile] :: 32.44
N#CCCCCCCC#N [octanedinitrile] :: 24.2
